Data origin: ChEMBL document CHEMBL1201861

Test system: NCI-H1648;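 also: cell viability assay measuring inhibition of NCI-H1648 cell growth, from the Sanger screening data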
Test: cells
Format: functional, cell-based, Homo sapiens
Conditions: Homo sapiens, NCI-H1648
Description: SANGER: Inhibition of human NCI-H1648 cell growth in a cell viability assay.
Assignment: determine reported IC50 for the given compounds.
Numbers only, in nM.

Cn1cncc1[C@@](N)(c1ccc(Cl)cc1)c1ccc2c(c1)c(-c1cccc(Cl)c1)cc(=O)n2C [TIPIFARNIB] = 2560

Attention now turns to another entry.
Under NCI-H1648: IC50 value of COc1ccc(-c2ccc3c(N4CCOC[C@@H]4C)nc(N4CCOC[C@@H]4C)nc3n2)cc1CO [AZD-8055] ?
702

###

Test system: KYSE-180;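 also: growth inhibition of KYSE-180 cells, read out with a cell viability assay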
Test: cells
Format: functional, cell-based, Homo sapiens
Conditions: kyse-180
Description: SANGER: Inhibition of human KYSE-180 cell growth in a cell viability assay.
assay-readout: IC50

Query: IC50; subject: Cc1cc([C@@H](C)Nc2ccccc2C(=O)O)c2nc(N3CCOCC3)cc(=O)n2c1
> 5.12 µM

###

Test system: GAMG;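 also: cell growth inhibition measured by a viability assay in the GAMG human cell line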
Test: cells
Assay type: functional, cell-based, Homo sapiens
Conditions: Homo sapiens, GAMG
Description: SANGER: Inhibition of human GAMG cell growth in a cell viability assay.
assay-readout: IC50

Example cases with answers are listed next.
Cc1cnc(-c2cnc(NCCNc3ccc(C#N)cn3)nc2-c2ccc(Cl)cc2Cl)[nH]1 = > 2.56 µM
Cn1cc(C2=C(c3ccc(Cl)cc3Cl)C(=O)NC2=O)c2ccccc21 = 6.65 µM
CN(c1ncccc1CNc1nc(Nc2ccc3c(c2)CC(=O)N3)ncc1C(F)(F)F)S(C)(=O)=O = > 2.56 µM
O=c1cc(-c2cccc3c2Sc2ccccc2S3)oc(N2CCOCC2)c1 = > 10 µM
O=C(NOCC1CC1)c1ccc(F)c(F)c1Nc1ccc(I)cc1Cl = 4.02 µM
COc1cc(F)c(F)c(Nc2ccc(I)cc2F)c1NS(=O)(=O)C1(CC(O)CO)CC1 (stereo not drawn) = > 5 µM

Hello, I would appreciate it if you could give IC50 for each entry below.
1. O=C(c1cc(Cc2n[nH]c(=O)c3ccccc23)ccc1F)N1CCN(C(=O)C2CC2)CC1
2. C=CCNC1=C2C[C@@H](C)C[C@H](OC)[C@H](O)[C@@H](C)/C=C(\C)[C@H](OC(N)=O)[C@@H](OC)/C=C\C=C(/C)C(=O)NC(=CC1=O)C2=O

1. > 5 µM
2. 0.0343 µM

###

System: no-11
Experiment: cells
Format: functional, cell-based, Homo sapiens
Conditions: Homo sapiens
Description: SANGER: Inhibition of human no-11 cell growth in a cell viability assay.
pIC50: −log10 of the molar value.
Assignment: determine reported pIC50 for the given compounds.

Example cases with answers are listed next.
CS(=O)(=O)CCNCc1ccc(-c2ccc3ncnc(Nc4ccc(OCc5cccc(F)c5)c(Cl)c4)c3c2)o1 = < 5.70
Cn1cncc1[C@@](N)(c1ccc(Cl)cc1)c1ccc2c(c1)c(-c1cccc(Cl)c1)cc(=O)n2C = 5.40
COc1cc(F)c(F)c(Nc2ccc(I)cc2F)c1NS(=O)(=O)C1(CC(O)CO)CC1 (centres undefined) = < 5.30

Query: pIC50; subject: O=C(/C=C/c1ccccc1)NC(NC(=S)Nc1cccc2cccnc12)C(Cl)(Cl)Cl (centres undefined)
< 4.80

###

Tested on: D-502MG
Assay: cells
Assay type: functional, cell-based, Homo sapiens
Details: Homo sapiens, D-502MG
Description: SANGER: Inhibition of human D-502MG cell growth in a cell viability assay.
Assignment: determine reported IC50 for the given compounds.

Hello, I would appreciate it if you could give IC50 for each entry below.
1. Cn1cncc1[C@@](N)(c1ccc(Cl)cc1)c1ccc2c(c1)c(-c1cccc(Cl)c1)cc(=O)n2C [TIPIFARNIB]
2. C=CCc1cccc(/C=N/NC(=O)CN2CCN(Cc3ccccc3)CC2)c1O [PAC-1]
3. CCOc1nc(NC(=O)Cc2cc(OC)ccc2OC)cc(N)c1C#N

["> 16 µM", "> 2.56 µM", "> 10 µM"]

Hello, I would appreciate it if you could give IC50 for each entry below.
1. O=C(c1cc(Cc2n[nH]c(=O)c3ccccc23)ccc1F)N1CCN(C(=O)C2CC2)CC1 [OLAPARIB]
2. CS(=O)(=O)CCNCc1ccc(-c2ccc3ncnc(Nc4ccc(OCc5cccc(F)c5)c(Cl)c4)c3c2)o1 [LAPATINIB]

1: > 5 µM; 2: > 2 µM
